Hello, the source for this data is patent CN114437215A, in case you need it.

Target: T1, 食蟹猴CD38胞外段Flag标签蛋白 cyno-CD38-ECD-Flag (cynomolgus monkey, UniProt Q5VAN0 44-301)
T1 construct: range 44-301; No linker between CD38 and the tag is stated; also called cyno-CD38-Flag
T1 sequence: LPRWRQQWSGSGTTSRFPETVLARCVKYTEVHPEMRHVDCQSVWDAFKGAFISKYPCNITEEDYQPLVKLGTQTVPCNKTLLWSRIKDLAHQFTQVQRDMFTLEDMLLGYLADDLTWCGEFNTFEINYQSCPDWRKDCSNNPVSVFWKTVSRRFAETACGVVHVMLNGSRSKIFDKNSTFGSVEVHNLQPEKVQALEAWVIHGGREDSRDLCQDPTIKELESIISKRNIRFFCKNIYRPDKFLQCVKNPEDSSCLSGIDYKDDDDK
Assay: SPR, Biacore T200; antibody captured on Protein A CM5 chip, cyno-CD38-Flag as analyte
quantity name: pKd
Please express pKd as -log10 of the molar concentration.

Worked set:
Input: Fill blank: measured pKd of the binder 人源化抗人CD38单克隆抗体145H (antibody, human IgG1, kappa, V domains shown, also called 145号抗体的人源化抗体) VH: QVQLVQSGAEVKKPGASVKVSCKASGYTFTNYLIDWVRQAPGQGLEWIGLINPGSGSTKYNEKFKGRVTLTADKSTSTAYMELSSLRSEDTAVYYCAKTGTLPYWGQGTLVTVSS VL: DIQMTQSPSSLSASVGDRVTITCKASQNVGTSVAWYQQKPGKAPKLLIYSTSYRSSGVPSRFSGSGSGTDFTLTISSLQPEDFATYYCQQYGSYPLTFGQGTKVEIKR is ____.
Output: 7.40

Input: Fill blank: measured pKd of the binder 人源化抗人CD38单克隆抗体105H (antibody, human IgG1, kappa, V domains shown, Humanized IgG1; also called 105-Humanization; 105号抗体的人源化抗体) VH: QVQLVQSGAEVKKPGASVKVSCKASGYTFTSYWMHWVRQAPGQGLEWIGHINPSSGYSEYSQKFKDRATLTADKSTSTAYMELSSLRSEDTAVYYCEIYYYVSRYVGDSWGQGTLVTVSS VL: DIQMTQSPSSLSASVGDRVTITCRASQEISGYLSWLQQKPGKTIKRLIYAASTLDSGVPSRFSGSRSGSDFTLTISSLQPEDFATYYCLQYDSYPLTFGQGTKVEIKR is ____.
Output: 8.47

Input: Fill blank: measured pKd of the binder 人源化抗人CD38单克隆抗体116H (antibody, human IgG1, kappa, V domains shown, also called 116号抗体的人源化抗体) VH: QVTLKESGPALVKPTQTLTLTCTLSGFSLSTSRMGVGWIRQPPGKGLEWLAHIWWDDDKRYNPALKSRLTISKDTSSNQVFLKIASVDKEDTATYYCGRIEVGRGAWFAYWGQGTLVTVSS VL: EIVLTQSPATLSLSPGERVSVTCKASQDVVTTVAWYQQKPGQAPRTLIYSASYRYSGVPARFSGSGSGTDFTLTISSLEPEDFAVYYCQQYYTYPFTFGQGTKVEIKR is ____.
Output: 9.39

***
Input: Fill blank: measured pKd of the binder 人源化抗人CD38单克隆抗体57H (antibody, human IgG1, kappa, V domains shown, also called 57号抗体的人源化抗体) VH: EVQLVESGGGLVQPGGSLRLSCAASGFTFSSFGMHWVRQAPGKGLEWVAYIGGDSNIIYYADTVKGRFTISRDNSKNTLYLQMNSLRAEDTAVYYCAKSHDYTMDYWGQGTLVTVSS VL: DIVMTQSPSSLAVSLGERVTITCKSSQSLLYSTNQKNYLAWFQQKPGQSPKLLIYWASTRESGVPDRFSGSGSGTDFTLTISSLQAEDVAVYYCQRYYNYPYTFGQGTKVEIKR is ____.
Output: 8.78
